assay: Metabolic stability of the compound in mouse liver microsomes assessed as compound remaining after 10 mins; assay type: ADME, Microsome; details: read-out: Stability
endpoint name: remaining at 10 min (%)

>>> print(df.to_string())
                                chem_smiles  readout_number
0  Cc1sc(N[C@](Cc2ccccc2)(c2cc(F)cc(OC(F)(F)C(F)F)c2)c2ccc(Cl)cn2)nc1C(F)(F)F              59
1  O=C(NC1CCCC1)N[C@@](Cc1ccccc1)(c1cc(F)cc(OC(F)(F)C(F)F)c1)c1ccc(Cl)cn1               4
2  Fc1cc(OC(F)(F)C(F)F)cc([C@@](Cc2ccccc2)(Nc2nc(C(F)(F)F)cs2)c2ccc(Cl)cn2)c1              78
3  Fc1cc(OC(F)(F)C(F)F)cc([C@@](Cc2ccccc2)(Nc2nc3c(F)cc(F)cc3[nH]2)c2ccc(Cl)cn2)c1              72
4  Fc1cc(C(F)(F)F)cc([C@@](Cc2ccccc2)(Nc2nc3c(s2)CCC3)c2ccc(Cl)cn2)c1              33
5  Fc1cc(OC(F)(F)C(F)F)cc([C@@](Cc2ccccc2)(Nc2nc(C(F)(F)F)c(Br)s2)c2ccc(Cl)cn2)c1             100
6  Fc1cc(OC(F)(F)C(F)F)cc([C@@](Cc2ccccc2)(Nc2nc3cc(F)ccc3[nH]2)c2ccc(Cl)cn2)c1              62
